- System: MALME-3M melanoma
- assayMethodText: NCI tumour cell line growth inhibition, 48 h
Note to self: values exactly at 20 µM are Satisfied. So TGI at or above 20 µM is Satisfied, below is Not satisfied.

For orientation, consider the following solved cases.
{"molecule": "CC12CCC(C(=Nc3ccc([N+](=O)[O-])cc3)C1=O)C2(C)C (stereo not given)", "className": "Satisfied"}
{"molecule": "CC1(C)OC2OC(/C=C/[N+](=O)[O-])C3OC(C)(C)OC3C2O1 (stereo not given)", "className": "Not satisfied"}
{"molecule": "NCCCc1nonc1C(=O)O", "className": "Satisfied"}

Determine whether measured TGI meets or exceeds 20 µM for O=c1ccn([C@@H]2C[C@H](CO)CS(=O)C2)c(=O)[nH]1 (stereo not given in full) Satisfied

Determine whether measured TGI meets or exceeds 20 µM for O=c1[nH]nc(Nc2ccc(Cl)cc2)c2nnn(-c3ccc([N+](=O)[O-])cc3)c12 Satisfied

Determine whether measured TGI meets or exceeds 20 µM for CN(C)CCCCN1c2ccccc2Sc2ccc(N=[N+]=[N-])cc21 Not satisfied

Determine whether measured TGI meets or exceeds 20 µM for C=C1C(=O)O[C@H]2[C@H]1CC/C(COC(=O)NCc1ccc(Cn3c(=O)sn(CCCI)c3=O)cc1)=C\CC[C@@]1(C)O[C@@H]21 Not satisfied

Determine whether measured TGI meets or exceeds 20 µM for BrC(/C=N/Nc1nnc(-c2ccccc2)c(-c2ccccc2)n1)C(Br)c1ccccc1 (stereo not given) Satisfied

Determine whether measured TGI meets or exceeds 20 µM for O=C(c1ccccc1)N1N=C(C(F)(F)F)CC1(O)C(F)(F)F (stereo not given) Satisfied

Determine whether measured TGI meets or exceeds 20 µM for CN1CC[C@H](N(C)C(=O)N2CC(c3cc(F)ccc3F)=C[C@@]2(CO)c2ccccc2)[C@H](F)C1 Satisfied

Determine whether measured TGI meets or exceeds 20 µM for CNC(=S)N/N=C/CSC/C=N/NC(=S)NC Satisfied

Determine whether measured TGI meets or exceeds 20 µM for CC(=O)Nc1ccc(S(=O)(=O)N2C(=O)CCC2C(=O)Nc2ccccc2)cc1 (stereo not given) Not satisfied

Determine whether measured TGI meets or exceeds 20 µM for CS(=O)(=O)Sc1ccc(Cl)cc1 Satisfied

Determine whether measured TGI meets or exceeds 20 µM for O=C1OCC2=C1C(c1ccc(Cl)cc1)c1cc3c(cc1O2)OCO3 (stereo not given) Satisfied

Determine whether measured TGI meets or exceeds 20 µM for CC(C)c1cc(C(C)C)c(S(=O)(=O)N/N=C2\CC3CCC2(C)C3(C)C)c(C(C)C)c1 (stereo not given) Satisfied

---

- System: NCI-H522 lung
- assayMethodText: NCI tumour cell line growth inhibition, 48 h
outcomeMeasure: TGI

Past entries and their recorded results:
{"compound": "O=C(CNC(=O)c1cccc2ccccc12)Nc1ccccc1Oc1ccc(O)cc1", "TGI": "> 25 µM"}
{"compound": "CC(=O)OCC1OC(NC(=S)Nn2c(-c3ccccc3)nc3ccccc3c2=O)C(OC(C)=O)C(OC(C)=O)C1OC(C)=O (stereo not given)", "TGI": "> 100 µM"}
{"compound": "O=C(c1ccccc1)N1N=C(C(F)(F)F)CC1(O)C(F)(F)F (stereo not given)", "TGI": "> 100 µM"}
{"compound": "C#CC[C@]12CC(=O)CC[C@H]1CC1(C2)OCCO1", "TGI": "> 100 µM"}

Query compound follows.
What TGI value was documented for this compound, O=C1N(c2ccccc2)C2(O)C(=O)c3ccccc3C2(O)N1c1ccccc1 (stereo not given) ? > 100 µM
